Reported MRGPRX4 activation, Ave. values for a set of molecules
molecular target: MRGPRX4 (Homo sapiens); assay: MRGPRX4 activation, Fluo-8 Ca2+ FLIPR assay in HEK293T cells stably expressing MRGPRX4; type: cell-based; set-up: key: fluorescence change dF/F0; settings: E3-7, Conc. (Log[M]) −5
Sequence (Q96LA9 whole entry): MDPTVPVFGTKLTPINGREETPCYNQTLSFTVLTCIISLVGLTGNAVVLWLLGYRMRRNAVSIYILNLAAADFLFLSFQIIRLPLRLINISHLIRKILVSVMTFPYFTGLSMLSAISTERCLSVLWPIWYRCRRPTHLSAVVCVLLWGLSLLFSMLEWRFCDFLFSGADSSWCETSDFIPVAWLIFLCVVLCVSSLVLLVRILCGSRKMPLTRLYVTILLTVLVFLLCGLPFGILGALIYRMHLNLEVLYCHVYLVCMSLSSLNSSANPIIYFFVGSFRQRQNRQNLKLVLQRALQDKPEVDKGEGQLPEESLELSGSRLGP
The response must contain the number and no unit.

Previously resolved entries follow.
Value lookup for MRGPRX4 activation, Ave.; key = [2H]C1([2H])CC[C@@]2(C)[C@@H](C1)[C@@H](CC)[C@@H](O)[C@@H]1[C@@H]2CC[C@]2(C)[C@@H]([C@H](C)CCNC(=O)NS(=O)(=O)c3ccc(C(C)(C)CF)cc3)CC[C@@H]12
−0.041

Value lookup for MRGPRX4 activation, Ave.; key = CC[C@H]1[C@@H](O)[C@@H]2[C@H](CC[C@]3(C)[C@@H]([C@H](C)CCNC(=O)C(=O)NS(=O)(=O)c4cc(F)cc(F)c4)CC[C@@H]23)[C@@]2(C)CCCC[C@@H]12
−0.014

Value lookup for MRGPRX4 activation, Ave.; key = CC[C@H]1[C@@H](O)[C@@H]2[C@H](CC[C@]3(C)[C@@H]([C@H](C)CCNC(=O)NS(=O)(=O)c4cc(F)ccc4F)CC[C@@H]23)[C@@]2(C)CCCC[C@@H]12
−0.014

Others:
Value lookup for MRGPRX4 activation, Ave.; key = [2H]C1CC[C@@]2(C)[C@@H](C1)[C@@H](CC)[C@@H](O)[C@@H]1[C@@H]2CC[C@]2(C)[C@@H]([C@H](C)CCNC(=O)NS(=O)(=O)c3ccc(C(C)(C)CF)cc3)CC[C@@H]12 (stereo partly shown)
−0.027

====

biological target: MRGPRX4 (Homo sapiens); test: MRGPRX4 activation, Fluo-8 Ca2+ FLIPR assay in HEK293T cells stably expressing MRGPRX4; type: cell-based; details: second E3-8-1, 10000 nM, n = 1
PROPERTY MEASURED: Activation (%)
Lab book: enter the figure in %, no units written.

Previously resolved entries follow.
Value lookup for Activation (%); key = CC[C@H]1[C@@H](O)[C@@H]2[C@H](CC[C@]3(C)[C@@H]([C@H](C)COC(=O)NS(=O)(=O)c4ccc5c(c4)CCC(C)(C)O5)CC[C@@H]23)[C@@]2(C)CCCC[C@@H]12
3.48

Value lookup for Activation (%); key = CC[C@H]1[C@@H](O)[C@@H]2[C@H](CC[C@]3(C)[C@@H]([C@H](C)COC(=O)NS(=O)(=O)c4ccc(N5CCCCC5)nc4)CC[C@@H]23)[C@@]2(C)CCCC[C@@H]12
2.24

Value lookup for Activation (%); key = CC[C@H]1[C@@H](O)[C@@H]2[C@H](CC[C@]3(C)[C@@H]([C@H](C)CNC(=O)NS(=O)(=O)c4ccc(N5CCCCC5)nc4)CC[C@@H]23)[C@@]2(C)CCCC[C@@H]12
2.55

Let's switch to this molecule now.
Value lookup for Activation (%); key = CC[C@H]1[C@@H](O)[C@@H]2[C@H](CC[C@]3(C)[C@@H]([C@H](C)COC(=O)NS(=O)(=O)c4ccc(C(C)(C)CF)cc4)CC[C@@H]23)[C@@]2(C)CCCC[C@@H]12
2.86

====

Target: MRGPRX4 (Homo sapiens)
Experiment: MRGPRX4 activation, Fluo-8 Ca2+ FLIPR assay in HEK293T cells stably expressing MRGPRX4
Format: cell-based
Details: Conc. (Log[M]) −5
Experimental: In some embodiments, cells were cultured in poly-D-Lys coated blacked walled, clear-bottom 96-well microplates. […] The concentration of solution should be determined according to the protocol settings and experimental needs (e.g., Log[M]=−4, −5, −6, −7, −8, and −9). […] A fluorescent signal baseline was measured using FLIPR®Tetra for 30 s. […] The fluorescent signal would be measured for another 150 s. Activity of each compound was calculated by the fluorescence change (dF/F0). […]
Outcome: yes for MRGPRX4 activation, fluorescence change (dF/F0), Average of at least 0.02; no for anything lower.

Please review the entries below; each comes with its answer.
hey, is MRGPRX4 activation, fluorescence change (dF/F0), Average for this one >= 0.02? CC[C@H]1[C@@H](O)[C@@H]2[C@H](CC[C@]3(C)[C@@H]([C@H](C)CCNC(=O)NS(=O)(=O)c4cc(F)ccc4F)CC[C@@H]23)[C@@]2(C)CC[C@H](F)C[C@@H]12
no

hey, is MRGPRX4 activation, fluorescence change (dF/F0), Average for this one >= 0.02? C[C@]12CC[C@@H](O)C[C@H]1CC[C@@H]1[C@@H]2C[C@H](O)[C@]2(C)[C@@H](CCCCCC(=O)O)CC[C@@H]12
yes

hey, is MRGPRX4 activation, fluorescence change (dF/F0), Average for this one >= 0.02? CC[C@H]1[C@@H](O)[C@@H]2[C@H](CC[C@]3(C)[C@@H]([C@H](C)CCNC(=O)NS(=O)(=O)c4ccc(C)cc4)CC[C@@H]23)[C@@]2(C)CCCC[C@@H]12
yes

hey, is MRGPRX4 activation, fluorescence change (dF/F0), Average for this one >= 0.02? CC[C@H]1[C@@H](O)[C@@H]2[C@H](CC[C@]3(C)[C@@H]([C@H](C)CCCOS(=O)(=O)O)CC[C@@H]23)[C@@]2(C)CCCC[C@@H]12
no

Now let's try a different one.
hey, is MRGPRX4 activation, fluorescence change (dF/F0), Average for this one >= 0.02? C[C@H](CCC(=O)O)[C@H]1CC[C@H]2[C@@H]3CC[C@@H]4C[C@@H](O)CC[C@]4(C)[C@H]3C[C@@H](O)[C@]12C
yes
